Entry source: patent US20110263647A1

- Assay Protocol: In vivo pharmacokinetics, IV and oral gavage
- Set-up: species or system male Sprague-Dawley rats
- Reported Conditions: male, Sprague-Dawley, plasma; rat, IV 2 mg/kg; read-out: IV AUClast
Structures can show the parent of a compound that is named as a salt.
Provide the recorded AUC(0-t) for the entries that follow.
Field format: number, assumed ng·h/mL, no unit text.

Lab note: N[C@H](CNc1ncc(-c2ccc3cnc(F)cc3c2)s1)Cc1ccc(Cl)c(F)c1 gave AUC(0-t) of 2030

Lab note: N[C@H](CCc1ncc(-c2ccc3cnc(F)cc3c2)s1)[C@@H](O)c1ccc(C(F)(F)F)cc1 [Example 36, trifluoroacetate] gave AUC(0-t) of 1600

Lab note: N[C@H](CNc1ncc(-c2ccc3cnc(F)cc3c2)s1)Cc1ccc(C(F)(F)F)cc1 [Example 4, trifluoroacetate] gave AUC(0-t) of 1530

Lab note: CC(F)(F)c1ccc(C[C@H](N)CCc2ncc(-c3ccc4cnc(F)cc4c3)s2)cn1 gave AUC(0-t) of 709

Lab note: N[C@H](CNc1ncc(-c2ccc3cnc(F)cc3c2)s1)CN1CCC(C(F)(F)F)CC1 gave AUC(0-t) of 1100

Lab note: C[C@@H](c1ccc(C(F)(F)F)cc1)[C@H](N)CNc1ncc(-c2ccc3cnccc3c2)s1 [10′, reference compound] gave AUC(0-t) of 1680

Lab note: N[C@H](CNc1ncc(-c2ccc3cnccc3c2)s1)Cc1ccc(Cl)c(F)c1 [44′, reference compound] gave AUC(0-t) of 787

Lab note: CC(F)(F)c1ccc([C@H](O)[C@H](N)CNc2ncc(-c3ccc4cnccc4c3)s2)cc1 [38′, reference compound] gave AUC(0-t) of 299

Lab note: C[C@@H](c1ccc(C(F)(F)F)cc1)[C@H](N)CNc1ncc(-c2ccc3cnc(F)cc3c2)s1 gave AUC(0-t) of 2040

Lab note: N[C@H](CNc1ncc(-c2ccc3cnccc3c2)s1)[C@@H](CO)c1ccc(C(F)(F)F)cc1 [33′, reference compound] gave AUC(0-t) of 691

Lab note: COCc1nc(NC[C@@H](N)Cc2ccc(C(F)(F)F)nc2)sc1-c1ccc2cnc(F)cc2c1 gave AUC(0-t) of 1640

Lab note: CC(F)(F)c1ccc(C[C@H](N)CNc2ncc(-c3ccc4cnccc4c3)s2)cn1 [7′, reference compound] gave AUC(0-t) of 336

Lab note: CC(F)(F)c1ccc(C[C@H](N)CNc2ncc(-c3ccc4cnc(F)cc4c3)s2)cn1 gave AUC(0-t) of 1440

Lab note: N[C@H](CNc1ncc(-c2ccc3cnc(F)cc3c2)s1)[C@@H](CO)c1ccc(C(F)(F)F)cc1 gave AUC(0-t) of 3130

----------
- Assay Protocol: In vivo pharmacokinetics, IV and oral gavage
- Design: species or system male Sprague-Dawley rats
- Reported Conditions: male, Sprague-Dawley, plasma; rat, PO 5 mg/kg; read-out: Oral Cmax
Measurement Name: log10 Cmax (log10 of the value in ng/mL)
In our notation, the value equals log10 of Cmax in ng/mL.

Lab note: C[C@@H](c1ccc(C(F)(F)F)cc1)[C@H](N)CNc1ncc(-c2ccc3cnc(F)cc3c2)s1 gave log10 Cmax of 2.50

Lab note: N[C@H](CNc1ncc(-c2ccc3cnc(F)cc3c2)s1)[C@@H](CO)c1ccc(C(F)(F)F)cc1 gave log10 Cmax of 2.43

Lab note: CC(F)(F)c1ccc(C[C@H](N)CCc2ncc(-c3ccc4cnc(F)cc4c3)s2)cn1 gave log10 Cmax of 2.36

Lab note: N[C@H](CCc1ncc(-c2ccc3cnccc3c2)s1)[C@@H](O)c1ccc(C(F)(F)F)cc1 [36′, reference compound] gave log10 Cmax of 1.43

Lab note: N[C@H](CNc1ncc(-c2ccc3cnc(F)cc3c2)s1)CN1CCC(C(F)(F)F)CC1 gave log10 Cmax of 1.76

Lab note: CC(F)(F)c1ccc(C[C@H](N)CNc2ncc(-c3ccc4cnc(F)cc4c3)s2)cn1 gave log10 Cmax of 2.33

Lab note: CC(F)(F)c1ccc(C[C@H](N)CNc2ncc(-c3ccc4cnccc4c3)s2)cn1 [7′, reference compound] gave log10 Cmax of 0.90

Lab note: COCc1nc(NC[C@@H](N)Cc2ccc(C(F)(F)F)nc2)sc1-c1ccc2cnc(F)cc2c1 gave log10 Cmax of 2.37

Lab note: N[C@H](CNc1ncc(-c2ccc3cnc(F)cc3c2)s1)Cc1ccc(Cl)c(F)c1 gave log10 Cmax of 2.42

Lab note: N[C@H](CNc1ncc(-c2ccc3cnccc3c2)s1)Cc1ccc(C(F)(F)F)nc1 [2′, reference compound] gave log10 Cmax of 1.46

Lab note: COCc1nc(NC[C@@H](N)Cc2ccc(C(F)(F)F)cc2)sc1-c1ccc2cnccc2c1 [24′, reference compound] gave log10 Cmax of 1.71

Lab note: N[C@H](CNc1ncc(-c2ccc3cnccc3c2)s1)CN1CCC(C(F)(F)F)CC1 [Comparative Example 25′, reference compound] gave log10 Cmax of 2.18

Lab note: N[C@H](CNc1ncc(-c2ccc3cnccc3c2)s1)Cc1ccc(C(F)(F)F)cc1 [4′, reference compound] gave log10 Cmax of 1.93

Lab note: N[C@H](CNc1ncc(-c2ccc3cnccc3c2)s1)[C@@H](CO)c1ccc(C(F)(F)F)cc1 [33′, reference compound] gave log10 Cmax of 1.36

Lab note: N[C@H](CNc1ncc(-c2ccc3cnccc3c2)s1)Cc1ccc(Cl)c(F)c1 [44′, reference compound] gave log10 Cmax of 2.14
